HepG2 cell Prediction (class prediction results using the method of the invention) data
REPORTED_ENDPOINT: Prediction (class prediction results using the method of the invention)

COMPOUND	VAL
ClC1C(Cl)C(Cl)C(Cl)C(Cl)C1Cl (stereo not shown)	NGTX
ClC(Cl)(Cl)Cl	NGTX+
O=c1[nH]cc(F)c(=O)[nH]1	NGTX+
O=C1CCCCCN1	NGTX+
O=C1O[C@H]([C@@H](O)CO)C(O)=C1O	GTX
COC(=O)[C@H]1[C@H]2C[C@@H]3c4[nH]c5cc(OC)ccc5c4CCN3C[C@H]2C[C@@H](OC(=O)c2cc(OC)c(OC)c(OC)c2)[C@@H]1OC	NGTX
O=c1c(O)c(-c2ccc(O)c(O)c2)oc2cc(O)cc(O)c12	NGTX

----------
- System: HepG2 cell
- PROTOCOL_TEXT: Class prediction of in vivo genotoxicity by the method of the invention (Ames stratification plus three-gene expression in HepG2)
- EXPERIMENTAL_SETUP: 62 compounds, three replicates, HepG2 24 h
REPORTED_ENDPOINT: Prediction (class prediction results using the method of the invention)

COMPOUND	VAL
Nc1ccccc1C(=O)O	NGTX
CCc1ccccc1	NGTX
CCOc1ccc(NC(C)=O)cc1	NGTX
[NH2][Pt]([NH2])([Cl])[Cl] [cisPt]	GTX
Clc1cc2c(cc1Cl)Oc1cc(Cl)c(Cl)cc1O2	NGTX
Cn1c(N)nc2c3cccnc3ccc21	GTX
C[C@]12CC[C@@H]3c4ccc(O)cc4CC[C@H]3[C@@H]1CC[C@@H]2O [E2, Estradiol]	NGTX
Clc1ccc(C(c2ccc(Cl)cc2)C(Cl)(Cl)Cl)cc1	NGTX
OC[C@@H](O)[C@@H](O)[C@H](O)[C@H](O)CO	NGTX
O=C(O)CCCc1ccc(N(CCCl)CCCl)cc1	GTX
CC1=CC(=O)[N-]S(=O)(=O)O1.[K+]	NGTX
Oc1cccc(O)c1	GTX

----------
- System: HepG2 cell

COMPOUND	TEST_SYSTEM	At least ⅔ genes +?
Nc1ccc(-c2ccc(N)cc2)cc1	HepG2 cell	GTX
ClC1C(Cl)C(Cl)C(Cl)C(Cl)C1Cl (stereo not drawn)	HepG2 cell	NGTX
O=c1ccc2ccccc2o1	HepG2 cell	NGTX
COc1ccc(C)cc1N	HepG2 cell	GTX
CCCCC(CC)COC(=O)c1ccccc1C(=O)OCC(CC)CCCC (stereo not drawn)	HepG2 cell	NGTX
O=P1(N(CCCl)CCCl)NCCCO1 (stereo not drawn)	HepG2 cell	GTX
CCNc1nc(Cl)nc(NCC)n1	HepG2 cell	NGTX
Cn1cnc([N+](=O)[O-])c1Sc1ncnc2nc[nH]c12	HepG2 cell	GTX
Oc1ccccc1	HepG2 cell	GTX
[NH2][Pt]([NH2])([Cl])[Cl] [cisPt]	HepG2 cell	GTX
O=C(O)CCCc1ccc(N(CCCl)CCCl)cc1	HepG2 cell	GTX
Cc1cccc(Nc2cc(Cl)nc(SCC(=O)O)n2)c1C	HepG2 cell	NGTX

----------
- System: HepG2 cell
- PROTOCOL_TEXT: Class prediction of in vivo genotoxicity by the method of the invention (Ames stratification plus three-gene expression in HepG2)
- EXPERIMENTAL_SETUP: 62 compounds, three replicates, HepG2 24 h
REPORTED_ENDPOINT: Prediction (class prediction results using the method of the invention)

COMPOUND	VAL
COc1ccc(N)cc1 [Anis]	GTX
COc1ccc(C)cc1N [pCres]	GTX
Oc1cccc2cccnc12 [8HQ]	GTX+
ClCc1ccccn1 [2CMP]	NGTX
Cc1c2ccccc2c(C)c2c1ccc1ccccc12 [DMBA]	GTX+
COc1cc2c(c3oc(=O)c4c(c13)CCC4=O)[C@@H]1C=CO[C@@H]1O2 [AFB1]	GTX
CCCCCCCCCCCCCC(=O)O[C@@H]1[C@@H](C)[C@@]2(O)[C@@H](C=C(CO)C[C@]3(O)C(=O)C(C)=C[C@@H]23)[C@H]2C(C)(C)[C@]12OC(C)=O [TPA]	NGTX
C=CC(=O)OCC [EtAc, Ethylacrylate]	GTX

----------
- Tested on: HepG2 cell

MOLECULAR_STRING	TEST_SYSTEM	Average result over three measurements
C=CCc1ccc(O)c(OC)c1	HepG2 cell	NGTX
O=C1O[C@H]([C@@H](O)CO)C(O)=C1O	HepG2 cell	GTX
ClCc1ccccn1	HepG2 cell	NGTX
ClC(Cl)Br	HepG2 cell	NGTX
Cn1c(N)nc2c3cccnc3ccc21	HepG2 cell	GTX
CN(C)N=O	HepG2 cell	GTX
